biological target: Neuropeptide S receptor (Homo sapiens); experiment: Confirmation Concentration-Response Assay for Antagonists of the Neuropeptide S Receptor: Calcium Signal Transduction, SAR for Probe; conditions: CHO-NPSR cells, NPS-induced calcium fluorescence, FDSS; series mostly up to 19.3 µM
Records with an inconclusive call do not appear. Activity calls are given as the source filed them. Calls come from the whole dose curve; as a rule, active = well fitted antagonist curve with a large enough effect in the main read-out, with a control signal flat; inconclusive = small, poorly fitted or top-dose-only effect; inactive = no such curve, though single readings can be large or run the other way.

| smiles-repr | target-system | outcome |
| --- | --- | --- |
| CC(=O)c1sc(-c2ccccc2)cc1NS(=O)(=O)c1ccccc1 | Neuropeptide S receptor (Homo sapiens) | inactive |
| Oc1ccc(N=Nc2nccs2)c(O)c1 | Neuropeptide S receptor (Homo sapiens) | inactive |
| Cc1nn(C)cc1/C=N/NC(=S)Nc1ccccc1 | Neuropeptide S receptor (Homo sapiens) | inactive |

# credit: PubChem BioAssay AID2567
